I'd appreciate it if you could supply Kd values for the items below.
# ASSAY_SYSTEM: HIF-1α PAS-B domain (Homo sapiens)
# Construct: made in house
# Sequence (Q16665 238-349 limits assumed): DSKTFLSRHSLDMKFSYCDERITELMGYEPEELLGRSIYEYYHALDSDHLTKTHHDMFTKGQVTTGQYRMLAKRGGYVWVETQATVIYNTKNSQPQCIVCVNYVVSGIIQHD
# ASSAY_METHOD_TEXT: MST binding to the PAS-B domain of HIF-1α
# RUN_CONDITIONS: MST; mean ± SEM, n = 2 (n = 1 for most C1 analogues, n = 3 in Figure S2); read-out: KD for HIF-1α PAS-B
Where a SMILES comes first, the peptide text is derived from it. [ ]: non-standard residue; d: D form. hPhe = N[C@@H](CCc1ccccc1)C(=O)O
Your answer should be a plain number; it is taken to be in µM.

Requested field: Kd. Item: CC[C@H](C)[C@@H]1NC(=O)[C@H](CC(C)C)NC(=O)[C@H](CCCNC(=N)N)NC(=O)[C@H](CS)NC(=O)[C@H](Cc2ccc(O)cc2)NC(=O)[C@H]([C@@H](C)CC)NC1=O [OH, cyclo-CRLIIY] (cyclo(CRLIIY))
7.4

Requested field: Kd. Item: CC[C@H](C)[C@@H]1NC(=O)[C@H](CC(C)C)NC(=O)[C@H](CCCNC(=N)N)NC(=O)[C@H](CS)NC(=O)[C@H](CCc2ccccc2)NC(=O)[C@H]([C@@H](C)CC)NC1=O [hF, cyclo-CRLIIhF] (cyclo(CRLII[hPhe]))
1.2

Requested field: Kd. Item: CC[C@H](C)[C@@H]1NC(=O)[C@H](CC(C)C)NC(=O)[C@H](CCCNC(=N)N)NC(=O)[C@H](CS)NC(=O)[C@H](C)NC(=O)[C@H]([C@@H](C)CC)NC1=O [cyclo-CRLIIA]
80.2
